Protocol Details: Brain penetration in the rat using HPLC assay
Assay type: in vivo
Condition Set: brain, iv, 4.5 mg/kg, IV bolus 4.5 mg/kg in PEG-400/EtOH/Water, 0.25 h, read-out: Brain Conc. (BC)
Recorded Endpoint: concentration at 0.25 h
Reply with a number, then the unit it belongs to.

Dear colleague, I am looking for the recorded concentration at 0.25 h of the following compound: C[C@H](NC(=O)[C@@](C)(Cc1c[nH]c2ccccc12)NC(=O)OCc1cc2ccccc2o1)c1ccccc1 [The Compound]
1400 ng/g

###

Protocol Details: Pharmacokinetics and oral bioavailability in the rat
Format: in vivo
Condition Set: plasma, PEG-400 solution PO 20 mg/kg, read-out: t1/2 terminal elimination half-life (converted)
Recorded Endpoint: half-life (h)
The answer is to be given in h; state only the numeric part.

What value of measured half-life is listed for C[C@H](NC(=O)[C@@](C)(Cc1c[nH]c2ccccc12)NC(=O)OCc1cc2ccccc2o1)c1ccccc1 ?
3

###

Protocol Details: Pharmacokinetics and oral bioavailability in the rat
Format: in vivo
Condition Set: plasma, PEG-400 solution PO 20 mg/kg, read-out: AUC zero to infinite time
Recorded Endpoint: AUC(0-inf)

Quick one: AUC(0-inf) for C[C@H](NC(=O)[C@@](C)(Cc1c[nH]c2ccccc12)NC(=O)OCc1cc2ccccc2o1)c1ccccc1 ?
6960 ng·h/mL

###

Protocol Details: Pharmacokinetics and oral bioavailability in the rat
Assay type: in vivo
Condition Set: plasma, PEG-400 solution PO 20 mg/kg
Recorded Endpoint: Tmax
Be sure to follow the number with its unit.

# lookup: Tmax of C[C@H](NC(=O)[C@@](C)(Cc1c[nH]c2ccccc12)NC(=O)OCc1cc2ccccc2o1)c1ccccc1 [The Compound]
5 h

###

Protocol Details: Brain penetration in the rat using HPLC assay
Format: in vivo
Condition Set: brain, po, 21.4 mg/kg, PO 21.4 mg/kg, 2 h, read-out: Brain Conc. (BC)
Recorded Endpoint: concentration at 2 h (ng/g)
Report as a plain number; the unit ng/g is understood.

I would be grateful if you could share the reported concentration at 2 h for C[C@H](NC(=O)[C@@](C)(Cc1c[nH]c2ccccc12)NC(=O)OCc1cc2ccccc2o1)c1ccccc1 .
96

###

Protocol Details: Pharmacokinetics and oral bioavailability in the rat
Assay type: in vivo
Condition Set: plasma, PEG-400 solution IV 5 mg/kg, read-out: t1/2 terminal elimination half-life (converted)
Recorded Endpoint: half-life (h)
Unit h implied. Number only.

half-life lookup needed for C[C@H](NC(=O)[C@@](C)(Cc1c[nH]c2ccccc12)NC(=O)OCc1cc2ccccc2o1)c1ccccc1 [The Compound] , thanks.
3.5

###

Protocol Details: Brain penetration in the rat using HPLC assay
Format: in vivo
Condition Set: brain, po, 21.4 mg/kg, PO 21.4 mg/kg, 2 h, read-out: BC/PC Ratio
Recorded Endpoint: Kp at 2 h
Respond using a number only.

If you can, please state the reported Kp at 2 h value of C[C@H](NC(=O)[C@@](C)(Cc1c[nH]c2ccccc12)NC(=O)OCc1cc2ccccc2o1)c1ccccc1 .
0.3

###

Protocol Details: Pharmacokinetics and oral bioavailability in the rat
Assay type: in vivo
Condition Set: plasma, MC suspension PO 3.7 mg/kg, read-out: t1/2 terminal elimination half-life (converted)
Recorded Endpoint: half-life (h)
Express your answer in h, writing the number without its unit.

So what does the record say about half-life for C[C@H](NC(=O)[C@@](C)(Cc1c[nH]c2ccccc12)NC(=O)OCc1cc2ccccc2o1)c1ccccc1 [The Compound] ?
2.8

###

Protocol Details: Brain penetration in the rat using HPLC assay
Type: in vivo
Condition Set: brain, iv, 4.5 mg/kg, IV 4.5 mg/kg, later postdose times, read-out: brain to plasma concentration ratio, steady value
Recorded Endpoint: Kp

Which measured Kp value corresponds to C[C@H](NC(=O)[C@@](C)(Cc1c[nH]c2ccccc12)NC(=O)OCc1cc2ccccc2o1)c1ccccc1 [The Compound] ?
~0.5

###

Protocol Details: Brain penetration in the rat using HPLC assay
Assay type: in vivo
Condition Set: plasma, po, 21.4 mg/kg, PO 21.4 mg/kg, 0.25 h, read-out: Plasma Conc. (PC)
Recorded Endpoint: concentration at 0.25 h (ng/mL)
Write the value in ng/mL as a bare number.

Please report the recorded concentration at 0.25 h for C[C@H](NC(=O)[C@@](C)(Cc1c[nH]c2ccccc12)NC(=O)OCc1cc2ccccc2o1)c1ccccc1 [The Compound] .
126

###

Protocol Details: Brain penetration in the rat using HPLC assay
Assay type: in vivo
Condition Set: brain, iv, 4.5 mg/kg, IV bolus 4.5 mg/kg, 8 h, N = 1, read-out: Brain Conc. (BC)
Recorded Endpoint: concentration at 8 h (ng/g)
Output spec: scalar in ng/g, unitless text.

Need concentration at 8 h, item C[C@H](NC(=O)[C@@](C)(Cc1c[nH]c2ccccc12)NC(=O)OCc1cc2ccccc2o1)c1ccccc1
4.8

###

Protocol Details: Brain penetration in the rat using HPLC assay
Type: in vivo
Condition Set: plasma, iv, 4.5 mg/kg, IV bolus 4.5 mg/kg, 8 h, read-out: Plasma Conc. (PC)
Recorded Endpoint: concentration at 8 h (ng/mL)
Number in ng/mL, nothing else.

Would you mind telling me what concentration at 8 h value was observed for C[C@H](NC(=O)[C@@](C)(Cc1c[nH]c2ccccc12)NC(=O)OCc1cc2ccccc2o1)c1ccccc1 ?
5.6

###

Protocol Details: Brain penetration in the rat using HPLC assay
Type: in vivo
Condition Set: brain, iv, 4.5 mg/kg, IV bolus 4.5 mg/kg, 2 h, read-out: BC/PC Ratio
Recorded Endpoint: Kp at 2 h

Consider the compound C[C@H](NC(=O)[C@@](C)(Cc1c[nH]c2ccccc12)NC(=O)OCc1cc2ccccc2o1)c1ccccc1 [The Compound] and give its measured Kp at 2 h.
0.47

###

Protocol Details: Brain penetration in the rat using HPLC assay
Type: in vivo
Condition Set: brain, po, 21.4 mg/kg, PO 21.4 mg/kg, 8 h, read-out: BC/PC Ratio
Recorded Endpoint: Kp at 8 h
No unit in the answer, only the number.

Data request, read-out Kp at 8 h, for C[C@H](NC(=O)[C@@](C)(Cc1c[nH]c2ccccc12)NC(=O)OCc1cc2ccccc2o1)c1ccccc1 [The Compound]
0.33

###

Protocol Details: Brain penetration in the rat using HPLC assay
Format: in vivo
Condition Set: brain, iv, 4.5 mg/kg, IV bolus 4.5 mg/kg, 0.25 h, read-out: BC/PC Ratio
Recorded Endpoint: Kp at 0.25 h

Form field: reported Kp at 0.25 h of C[C@H](NC(=O)[C@@](C)(Cc1c[nH]c2ccccc12)NC(=O)OCc1cc2ccccc2o1)c1ccccc1 [The Compound]
1.8

###

Protocol Details: Pharmacokinetics and oral bioavailability in the rat
Type: in vivo
Condition Set: plasma, PEG-400 solution IV 5 mg/kg, read-out: Cl total systemic clearance
Recorded Endpoint: clearance (mL/min/kg)
Write the answer as a number in mL/min/kg, unit excluded.

# input molecule: C[C@H](NC(=O)[C@@](C)(Cc1c[nH]c2ccccc12)NC(=O)OCc1cc2ccccc2o1)c1ccccc1 [The Compound] ; wanted: its clearance
23.9

###

Protocol Details: Pharmacokinetics and oral bioavailability in the rat
Type: in vivo
Condition Set: plasma, PEG-400 solution IV 5 mg/kg, read-out: Vd steady-state volume of distribution
Recorded Endpoint: Vd (L/kg)
All answers are understood in L/kg, so give the number only.

Value lookup for Vd; key = C[C@H](NC(=O)[C@@](C)(Cc1c[nH]c2ccccc12)NC(=O)OCc1cc2ccccc2o1)c1ccccc1
3

###

Protocol Details: Brain penetration in the rat using HPLC assay
Type: in vivo
Condition Set: brain, po, 21.4 mg/kg, PO 21.4 mg/kg, 4 h, read-out: Brain Conc. (BC)
Recorded Endpoint: concentration at 4 h (ng/g)
Numeric only. Scale: ng/g

Entry C[C@H](NC(=O)[C@@](C)(Cc1c[nH]c2ccccc12)NC(=O)OCc1cc2ccccc2o1)c1ccccc1 [The Compound] has what concentration at 4 h?
212

###

Protocol Details: Pharmacokinetics and oral bioavailability in the rat
Format: in vivo
Condition Set: plasma, PEG-400 solution IV 5 mg/kg, read-out: AUC zero to infinite time
Method: 0.5% methyl cellulose, and nanosystem vehicle, The drug was administered either PO by gavage or IV via jugular vein. Blood samples were drawn from jugular vein cannulac into syringes containing heparin before dosing and at different times up to 24 hours postdose. Plasma was harvested by centrifugation and stored at -20° C. until analysis. Plasma samples were analyzed for The Compound using a validated liquid chromatographic method.
Recorded Endpoint: AUC(0-inf) (ng·h/mL)
// units = ng·h/mL; emit number, no label

So what does the record say about AUC(0-inf) for C[C@H](NC(=O)[C@@](C)(Cc1c[nH]c2ccccc12)NC(=O)OCc1cc2ccccc2o1)c1ccccc1 ?
3560
